Test system: Plasmodium berghei
Experiment: Screen against P. berghei liver stage (PbLuc), transformed with Luciferase, at 2uM
Type: functional, HepG2
Details: tested at 2 uM
About 2,700 (4%) of roughly 68,000 compounds showed an effect of 50% or more. This is one part of a sample in which strong results are shown more often than they occur.
Threshold check on INHIBITION: at or above 30% gives True, strictly below gives False.

molecule	cat
CC(C)CC(O)C1CCN(C(=O)c2ccc(C(F)(F)F)nc2O)CC1 (stereo unspecified)	True
Cc1nc(C2CCCN(C(=O)c3cnn(C(C)(C)C)c3)C2)no1 (stereo unspecified)	True
O=C(Cc1ccccc1)N1CCC(c2nnc(-c3ccccn3)o2)CC1	False

Next molecule, please.
Test whether the molecule `CCOCc1nc2c(c(N3CCCn4nc(C)cc4C3)n1)CCNCC2` records INHIBITION of 30% or higher. False

====

Test system: Plasmodium berghei
Experiment: Screen against P. berghei liver stage (PbLuc), transformed with Luciferase, at 2uM
Format: functional, HepG2
Conditions: tested at 2 uM
The whole screen tested about 68,000 compounds, of which about 2,700 (4%) showed an effect of 50% or more. Many of the other results were omitted from the sample, so strong results are more common in it than they were.
endpoint_name: INHIBITION (%)
Express the result in % but write the number alone.

For orientation, consider the following solved cases.
compound	target_system	endpoint_name	endpoint_value
CCN1CCN(C)C(=O)C12CCN(Cc1ccsc1)CC2	Plasmodium berghei	INHIBITION	39.18
Cc1noc([C@H]2CC[C@@H]3[C@@H](CCN3S(=O)(=O)C3CC3)O2)n1	Plasmodium berghei	INHIBITION	1.83
CN1CCN(C)C2(CCN(Cc3ccsc3)CC2)C1=O	Plasmodium berghei	INHIBITION	59.5
CCN1CCN(C)C2(CCN(Cc3ccsc3)CC2)C1=O	Plasmodium berghei	INHIBITION	38.64
Cc1ccccc1C(=O)Nc1cnn(CC(=O)NC2CCCC2)c1	Plasmodium berghei	INHIBITION	-24.24

Which INHIBITION value is on record for `Cn1ccnc1-c1cnn(CC(=O)Nc2ccnn2C)c1` ? 35.13

Which INHIBITION value is on record for CCNC(=O)C(C)NC(=O)Nc1ccccc1SCC (stereo not given) ? 60.13

====

Measured INHIBITION of individual entries
System: Plasmodium berghei
Assay: Screen against P. berghei liver stage (PbLuc), transformed with Luciferase, at 2uM
Assay type: functional, HepG2
Conditions: tested at 2 uM
Out of some 68,000 compounds screened, about 2,700 (4%) showed an effect of 50% or more. What follows is part of a selection rich in strong results, with near analogues and random picks from the rest.
Express the result in % but write the number alone.

Which INHIBITION value is on record for `CCC(CC)C(=O)NCc1cn2cc(Br)ccc2n1` ? -10.87

Which INHIBITION value is on record for OC(CN1CC(n2cccn2)C1)c1ccc2c(c1)OCCO2 (stereo unspecified) ? -28.22

====

Tested on: Plasmodium berghei
Assay: Screen against P. berghei liver stage (PbLuc), transformed with Luciferase, at 2uM
Assay type: functional, HepG2
Settings: tested at 2 uM
Out of some 68,000 compounds screened, about 2,700 (4%) showed an effect of 50% or more. What follows is part of a selection rich in strong results, with near analogues and random picks from the rest.
Mark 1.0 only when INHIBITION stays strictly below 10%. Values equal to the cut-off are 0.0.

Record excerpt, results attached:
compound	target_system	cat
c1cncc(O[C@H]2CC[C@H]3[C@H]2OCCN3C2CCCC2)c1	Plasmodium berghei	1.0
CC(=O)Nc1ccc(C(=O)NCCCn2cccc2)cc1	Plasmodium berghei	0.0
O=C(Nc1ccc(F)c(-n2cccc2)c1)NC1(CCO)CCOCC1	Plasmodium berghei	1.0
COc1ccc2c(ccn2CCC(=O)NCc2ccc(C(=O)O)cc2)c1	Plasmodium berghei	0.0
CC1CCCN(c2ccccc2OCC(=O)NC2CCOCC2)C1 (configuration not stated)	Plasmodium berghei	0.0

Is INHIBITION of `CO[C@@H]1CCC[C@@H](NC(=O)CCCn2cncn2)[C@H]1O` strictly below 10%? 1.0

Is INHIBITION of CC(NC(=O)c1ccc(Cl)cc1)c1nnc(SCC(N)=O)n1C (configuration not stated) strictly below 10%? 0.0

Is INHIBITION of Cc1nn(C)c2c(=O)n(C)c(NCC3CCCO3)nc12 (configuration not stated) strictly below 10%? 0.0

Is INHIBITION of COc1ccccc1CC1CCCN(C(=O)c2cn[nH]c2C)C1 (configuration not stated) strictly below 10%? 1.0

Is INHIBITION of `CN(Cc1nnc2n1CCC2)C(=O)c1ccc2c(c1)CCO2` strictly below 10%? 0.0

Is INHIBITION of `O=C(NCCc1cccs1)N1CCC[C@H]1CO` strictly below 10%? 0.0

Is INHIBITION of O=C(Cc1ccccn1)N1CCCC(c2nccn2CC2CCC2)C1 (configuration not stated) strictly below 10%? 0.0

Is INHIBITION of `Cc1ccc(N2CC[C@@H]3CN(Cc4cc[nH]n4)C[C@@H]3C2)nn1` strictly below 10%? 0.0

====

Test system: Plasmodium berghei
Assay: Screen against P. berghei liver stage (PbLuc), transformed with Luciferase, at 2uM
Format: functional, HepG2
Conditions: tested at 2 uM
Among all 68,000 compounds or so, about 2,700 (4%) showed an effect of 50% or more. The entries come from a sample that favours strong results as a whole.
endpoint_name: INHIBITION (%)
Express the result in % but write the number alone.

compound	INHIBITION [%]
CCc1nc(CN(C(C)=O)C2CCN(CCc3cnn(C)c3)C2)no1 (centres undefined)	-10.66

Which INHIBITION value is on record for C[S+]([O-])c1nncn1CC(=O)c1ccc(Cl)c(Cl)c1 (centres undefined) ? 20.66

Which INHIBITION value is on record for `COc1ccc(N2CCN(C(=O)CCc3n[nH]c(C)n3)CC2=O)cc1` ? 62.3

Which INHIBITION value is on record for `c1cncc(CNc2ccccc2-c2nn[nH]n2)c1` ? 27

Which INHIBITION value is on record for `CCN1CCN(c2ccc(CNC(=O)c3cc(C)on3)cn2)CC1` ? 23.24

Which INHIBITION value is on record for `CS(=O)(=O)c1nccn1Cc1ccc(F)cc1Cl` ? 29.43

====

Tested on: Plasmodium berghei
Assay: Screen against P. berghei liver stage (PbLuc), transformed with Luciferase, at 2uM
Type: functional, HepG2
Conditions: tested at 2 uM
In all, about 68,000 compounds went through this assay and about 2,700 (4%) showed an effect of 50% or more. Shown is part of a subset that was picked to be rich in strong results.
Mark Satisfied only when INHIBITION stays strictly below 40%. Values equal to the cut-off are Not satisfied.

Record excerpt, results attached:
compound	cat
Cc1cc(C2CCC2)nc(N2CCN(Cc3nccn3C)CC2)n1	Satisfied
O=C(NCC1Cn2nnc(-c3ccncc3)c2CO1)c1ccsc1 (centres undefined)	Satisfied
CN(C)c1nc(NCCc2cnccn2)ncc1F	Not satisfied
Cc1cnn(CCC(=O)N2CCN(C(=O)C(C)C)[C@@H]3CS(=O)(=O)C[C@@H]32)c1	Satisfied
O=C(CCn1cc(Cl)cn1)N1CCN(CC2CC2)[C@@H]2CS(=O)(=O)C[C@@H]21	Not satisfied
Cc1nc2ccccc2n1CCNCc1cccc(O)c1	Not satisfied

Is INHIBITION of `Cc1cc(C2CCC2)nc(N2CC(n3cccn3)C2)n1` strictly below 40%? Not satisfied

Is INHIBITION of `Cc1cc(N(C)C)nc(N2CC(n3cccn3)C2)n1` strictly below 40%? Satisfied

Is INHIBITION of `O=c1[nH]c(NCCCO)nc2c1C1(CCCC1)Cc1ccccc1-2` strictly below 40%? Not satisfied

====

Measured INHIBITION of individual entries
Test system: Plasmodium berghei
Assay: Screen against P. berghei liver stage (PbLuc), transformed with Luciferase, at 2uM
Assay type: functional, HepG2
Details: tested at 2 uM
The whole screen tested about 68,000 compounds, of which about 2,700 (4%) showed an effect of 50% or more. The sample as a whole holds a higher share of strong results than the screen did.
Express the result in % but write the number alone.

compound	endpoint_value
O=C(N[C@@H]1CN(Cc2ccoc2)C[C@@H]2CCCO[C@@H]21)C1CCC1	-8.62
Cc1oncc1C(=O)NCc1cc(=O)n2c(n1)CN(C(C)C)CCC2	4.42
Cc1cccnc1NC(=O)N(CCO)Cc1ccsc1	36.95
O[C@@H]1C[C@@H](c2nc(-c3ccc(OC(F)(F)F)cc3)no2)N(CC2CC2)C1	13.92
COc1ccc(F)cc1C(=O)C1CCCN(Cc2ccc(C)s2)C1 (stereo unspecified)	49.02

Kindly review the next compound as well.
Which INHIBITION value is on record for COc1ccc(C(=O)C2CCCN(Cc3cccc(F)c3)C2)c(OC)c1 (stereo unspecified) ? -14.94

The reported measurements were obtained from ChEMBL document CHEMBL4513216.
